Entry source: patent US5721234A

List of log10 IC50 values.
TGT: AMPA receptors
PROCEDURE_SUMMARY: AMPA receptor binding affinity (Honore et al.)
MEASUREMENT_CONTEXT: Table 1, cyclohexyl-fused analogs
Counter-ions that a name gives are not always drawn.
Please keep in mind that the values are log10 of IC50 expressed in µM.

> print(dat)
                                   molecule  meas.value
1  O=c1[nH]c2cc(Br)c3c(c2[nH]c1=O)CC(O)CC3 (centres unmarked)        1.23
2  O=C(NC1CCc2c([N+](=O)[O-])cc3[nH]c(=O)c(=O)[nH]c3c2C1)C1CCNCC1 (centres unmarked) [Example 40, hydrochloride]       -0.57
3  O=C(NC1CCc2c([N+](=O)[O-])cc3[nH]c(=O)c(=O)[nH]c3c2C1)c1ccccc1 (centres unmarked)       -0.38

INPUT: Query: log10 IC50; subject: O=c1[nH]c2cc([N+](=O)[O-])c3c(c2[nH]c1=O)CC(N1CCCC1)CC3 (centres unmarked)
OUTPUT: 0.34

INPUT: Entry O=c1[nH]c2cc(Br)c3c(c2[nH]c1=O)CC(NCc1ccccc1)CC3 (centres unmarked) please
OUTPUT: 1.40

INPUT: Now try CNC1CCc2c([N+](=O)[O-])cc3[nH]c(=O)c(=O)[nH]c3c2C1 (centres unmarked) .
OUTPUT: -0.10

INPUT: Now the molecule NC1CCc2c([N+](=O)[O-])cc3[nH]c(=O)c(=O)[nH]c3c2C1 (centres unmarked)
OUTPUT: -0.15

INPUT: What about O=c1[nH]c2cc(Br)c3c(c2[nH]c1=O)CC(OCc1ccccc1)CC3 (centres unmarked) ?
OUTPUT: 1.15
